Target: UniProt J7RUA5
Sequence (J7RUA5 whole entry): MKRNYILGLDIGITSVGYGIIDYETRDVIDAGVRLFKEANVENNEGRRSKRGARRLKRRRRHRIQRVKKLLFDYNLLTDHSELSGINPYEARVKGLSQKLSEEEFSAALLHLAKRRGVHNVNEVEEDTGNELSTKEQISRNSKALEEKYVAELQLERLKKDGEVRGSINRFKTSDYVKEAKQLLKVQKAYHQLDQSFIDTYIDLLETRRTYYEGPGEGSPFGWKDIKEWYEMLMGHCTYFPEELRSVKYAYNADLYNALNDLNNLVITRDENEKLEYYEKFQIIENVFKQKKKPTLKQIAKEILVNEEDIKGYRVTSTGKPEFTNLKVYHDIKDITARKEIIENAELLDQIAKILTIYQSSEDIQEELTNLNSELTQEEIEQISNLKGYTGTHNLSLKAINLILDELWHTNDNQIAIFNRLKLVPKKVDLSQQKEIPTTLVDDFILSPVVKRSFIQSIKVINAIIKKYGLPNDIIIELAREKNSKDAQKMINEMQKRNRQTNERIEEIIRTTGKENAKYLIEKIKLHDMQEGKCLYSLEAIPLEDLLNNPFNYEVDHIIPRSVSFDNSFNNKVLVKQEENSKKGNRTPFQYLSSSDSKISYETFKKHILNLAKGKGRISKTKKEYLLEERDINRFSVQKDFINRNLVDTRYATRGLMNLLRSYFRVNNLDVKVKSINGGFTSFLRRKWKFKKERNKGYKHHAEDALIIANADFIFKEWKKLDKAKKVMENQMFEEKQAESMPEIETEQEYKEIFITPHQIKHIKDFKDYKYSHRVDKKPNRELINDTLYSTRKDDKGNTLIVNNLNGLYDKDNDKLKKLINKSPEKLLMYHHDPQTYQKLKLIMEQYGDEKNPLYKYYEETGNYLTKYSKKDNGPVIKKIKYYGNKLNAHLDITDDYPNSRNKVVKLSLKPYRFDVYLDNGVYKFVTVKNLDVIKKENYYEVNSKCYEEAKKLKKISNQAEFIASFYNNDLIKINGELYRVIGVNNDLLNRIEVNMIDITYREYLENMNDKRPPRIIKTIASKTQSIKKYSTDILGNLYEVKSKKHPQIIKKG
Experiment: Strand displacement assay, SaCas9 primary screen
Assay type: biochemical
Details: SaCas9 primary screen, weaker potential hits, replicate 1
Protocol: An overview of the screening for SaCas9 inhibitors is depicted in FIG. 14. A total of 43,168 Compounds were screened from the ICCB Libraries. […] A hit is determined from the Zscore, with 3-5σ being a weak hit, >5σ being a strong hit. […] Generalization of CAA to other Cas nucleases. […] Given the similarities between SaCas9 and SpCas9 modes of DNA-substrate binding and protein folding,^26, 27 Applicants hypothesized that SaCas9-induced strand displacement could be similarly measured. […]
Readout kind: Normalized Zscore Rep 1
One number for each entry.

Example entries begin here.
- Molecule: "C=C1C(C(=O)NCc2ccco2)C1C(=O)NCc1ccco1 (stereo not drawn) [Cpd T0501-2919]"
  Readout kind: "Normalized Zscore Rep 1"
  Observed value: 0.507
- Molecule: "Brc1ccc(OCc2nn3c(-c4ccccn4)nnc3s2)cc1 [Compound D727-0522]"
  Readout kind: "Normalized Zscore Rep 1"
  Observed value: 0.3471
- Molecule: "O=c1ccc2ccc(OCc3nnn[nH]3)cc2o1 [Cpd D715-0997]"
  Readout kind: "Normalized Zscore Rep 1"
  Observed value: 0.2335
- Molecule: "CCN(Cc1ccccc1)c1ncc(NS(=O)(=O)c2cc(C)ccc2C)cc1C(=O)O [Cpd F293-0010]"
  Readout kind: "Normalized Zscore Rep 1"
  Observed value: 0.2507
- Molecule: "CCN(Cc1ccccc1)c1ncc(NS(=O)(=O)c2ccc(F)cc2)cc1C(=O)O [Cpd F293-0001]"
  Readout kind: "Normalized Zscore Rep 1"
  Observed value: 0.18
- Molecule: "O=C(O)c1cc(NS(=O)(=O)N2CCOCC2)ccc1N1CCCC(CN2CCCC2)C1 (stereo not drawn) [Cpd F294-1002]"
  Readout kind: "Normalized Zscore Rep 1"
  Observed value: 0.2452
- Molecule: "Cc1ccc(OCc2nn3c(-c4ccoc4C)nnc3s2)cc1C [Cpd D727-0113]"
  Readout kind: "Normalized Zscore Rep 1"
  Observed value: 0.1802
- Molecule: "CCSc1nc2c(c(=O)[nH]1)C(c1ccc(O)c(O)c1)CC(=O)N2 (stereo not drawn) [Cpd D271-0002]"
  Readout kind: "Normalized Zscore Rep 1"
  Observed value: 0.2655

Now let's try a different one.
Looking up CCN(Cc1ccccc1)c1ccc(NS(=O)(=O)c2ccccc2)cc1C(=O)O [Cpd F294-0004] , I found its Normalized Zscore Rep 1 recorded as 0.2186
